Please respond with reported log10 IC50 for every item in the list.
tgt: PIM2 (Homo sapiens, UniProt Q9P1W9)
Sequence (Q9P1W9 whole entry): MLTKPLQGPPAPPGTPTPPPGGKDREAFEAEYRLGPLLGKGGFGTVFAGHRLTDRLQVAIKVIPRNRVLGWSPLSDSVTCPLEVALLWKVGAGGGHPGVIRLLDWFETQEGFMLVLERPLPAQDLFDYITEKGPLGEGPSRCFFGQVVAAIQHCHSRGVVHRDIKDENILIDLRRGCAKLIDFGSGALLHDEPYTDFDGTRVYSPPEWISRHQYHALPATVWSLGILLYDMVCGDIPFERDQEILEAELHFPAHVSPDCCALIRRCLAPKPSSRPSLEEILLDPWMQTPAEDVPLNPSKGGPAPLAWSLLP
experiment notes: Pim 2 AlphaScreen assay (high ATP)
Assay type: biochemical
run parameters: read-out: Pim2 IC50
Response schema: value (number) is log10 of IC50 in units of nM.

The recorded log10 IC50 for entry CC[C@@H]1O[C@H](c2ccncc2NC(=O)c2ccc(F)c(-c3c(F)cccc3F)n2)C[C@H](O)[C@@]1(C)O [Example 163] equals 3.87

The recorded log10 IC50 for entry O=C(Nc1cnccc1[C@@H]1C[C@H](O)[C@@H](O)C2(CC2)O1)c1ccc(F)c(-c2c(F)cccc2F)n1 [Example 250] equals 3.56

The recorded log10 IC50 for entry C[C@H]1O[C@@H](c2ccncc2NC(=O)c2ccc(F)c(-c3c(F)cc(C(=O)N(C)C)cc3F)n2)C[C@@H](N)[C@]1(C)O [Example 334] equals 1.80

The recorded log10 IC50 for entry C[C@@]1(O)[C@@H](N)C[C@@H](c2ccncc2NC(=O)c2ccc(F)c(-c3c(F)cccc3F)n2)OC12CC2 [Example 266] equals 2.60

The recorded log10 IC50 for entry C[C@H]1O[C@@H](c2ccncc2NC(=O)c2ccc(F)c(-c3c(F)cccc3F)n2)C[C@@H](N)[C@]1(C)O [Example 219] equals 0.93

The recorded log10 IC50 for entry Cc1cc(F)c(-c2nc(C(=O)Nc3cnccc3[C@H]3C[C@@H](N)[C@](C)(O)[C@@H](C)O3)ccc2F)c(F)c1 [Example 245] equals 0.84

###

tgt: PIM3 (Homo sapiens)
experiment notes: KinaseGlo Pim3 ATP depletion assay
Format: biochemical
Mark 1.0 for IC50 under 40 nM, 0.0 if at or over.

Field: below-cutoff. Rule: recorded IC50 strictly less than 40 nM. Subject: N#CC[C@H]1O[C@@H](c2ccncc2NC(=O)c2ccc(C#N)c(-c3c(F)cccc3F)n2)C[C@@H](O)[C@@H]1O 0.0

Field: below-cutoff. Rule: recorded IC50 strictly less than 40 nM. Subject: O=C(Nc1cnccc1[C@H]1C[C@@H](O)CC2(CC2)O1)c1csc(-c2c(F)cccc2F)n1 1.0

Field: below-cutoff. Rule: recorded IC50 strictly less than 40 nM. Subject: C[C@@H]1O[C@H](c2ccncc2NC(=O)c2ccc(F)c(-c3c(F)cccc3F)n2)C[C@H](N)[C@H]1O 1.0

Field: below-cutoff. Rule: recorded IC50 strictly less than 40 nM. Subject: CC[C@H]1O[C@@H](c2ccncc2NC(=O)c2nc(-c3ccccc3)ncc2N)C[C@@H](O)[C@@H]1O 1.0

Field: below-cutoff. Rule: recorded IC50 strictly less than 40 nM. Subject: CC[C@@H]1O[C@H](c2ccncc2NC(=O)c2nc(-c3c(F)cccc3F)c(F)cc2N)C[C@H](O)[C@@]1(C)O 1.0

Field: below-cutoff. Rule: recorded IC50 strictly less than 40 nM. Subject: CC[C@H]1O[C@@H](c2ccncc2NC(=O)c2nc(-c3c(F)cccc3F)c(F)cc2N)C[C@@H](O)[C@@H]1O 1.0

Field: below-cutoff. Rule: recorded IC50 strictly less than 40 nM. Subject: CC[C@H]1O[C@@H](c2ccncc2NC(=O)c2c[nH]cc(-c3ccccc3F)c2=O)C[C@@H](O)[C@@H]1O 0.0

###

tgt: GSK3β (Homo sapiens, UniProt P49841)
Sequence (P49841 whole entry, species assumed): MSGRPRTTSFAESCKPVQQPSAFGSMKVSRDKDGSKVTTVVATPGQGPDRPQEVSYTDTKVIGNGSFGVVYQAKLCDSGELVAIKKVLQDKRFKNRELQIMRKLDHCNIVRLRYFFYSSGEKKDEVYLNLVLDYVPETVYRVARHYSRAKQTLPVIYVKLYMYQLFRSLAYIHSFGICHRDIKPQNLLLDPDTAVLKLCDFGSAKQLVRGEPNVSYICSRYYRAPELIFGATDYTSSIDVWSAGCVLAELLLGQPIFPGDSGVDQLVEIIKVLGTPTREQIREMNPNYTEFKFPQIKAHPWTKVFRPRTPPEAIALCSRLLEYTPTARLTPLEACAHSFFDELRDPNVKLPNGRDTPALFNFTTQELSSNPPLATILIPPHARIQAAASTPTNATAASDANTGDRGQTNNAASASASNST
experiment notes: GSK3β ATP depletion assay
Format: biochemical
run parameters: ATP depletion assay; read-out: GSK3b IC50
measured quantity: log10(IC50) (log10 of the value in nM)
Response schema: value (number) is log10 of IC50 in units of nM.

The recorded log10(IC50) for entry Nc1cnc(-c2c(F)cccc2F)nc1C(=O)Nc1cnccc1[C@@H]1C[C@H](O)[C@@H](O)C2(CC2)O1 equals 3.05

The recorded log10(IC50) for entry Cc1cc(F)c(-c2nc(C(=O)Nc3cnccc3[C@H]3C[C@@H](N)[C@](C)(O)[C@@H](C)O3)ccc2F)c(F)c1 equals 2.89

The recorded log10(IC50) for entry Nc1ncc(-c2ccccc2)nc1C(=O)Nc1cnccc1[C@H]1C[C@@H](N)[C@@]2(O)CCC[C@H]2O1 equals 0.64

The recorded log10(IC50) for entry CC[C@]1(O)[C@H](C)O[C@H](c2ccncc2NC(=O)c2nc(-c3ccccc3)cnc2N)C[C@@H]1N equals 1.85

The recorded log10(IC50) for entry CC(C)(C)[C@@H]1O[C@H](c2ccncc2NC(=O)c2ccc(F)c(-c3c(F)cccc3F)n2)C[C@@H](N)[C@H]1O equals 2.74

The recorded log10(IC50) for entry CC(C)[C@H]1O[C@@H](c2ccncc2NC(=O)c2ccnc(-c3c(F)cccc3F)n2)C[C@@H](N)[C@@H]1O equals 2.98

The recorded log10(IC50) for entry CC(C)[C@H]1O[C@@H](c2ccncc2NC(=O)c2ccc(F)c(-c3ccc(S(C)(=O)=O)cc3)n2)C[C@@H](N)[C@@H]1O equals 3.45

The recorded log10(IC50) for entry CC(C)[C@H]1OC(c2ccncc2NC(=O)c2ccc(F)c(-c3c(F)cc(S(C)(=O)=O)cc3F)n2)C[C@@H](N)[C@@H]1O (stereo in doubt) equals 3.45

The recorded log10(IC50) for entry Nc1ncc(-c2ccccc2)nc1C(=O)Nc1cnccc1[C@@H]1C[C@H](N)[C@@H]2CCC[C@@H]2O1 equals 2.52

The recorded log10(IC50) for entry CC[C@]1(O)[C@H](N)C[C@H](c2ccncc2NC(=O)c2ccc(F)c(-c3c(F)cc(OC)cc3F)n2)O[C@@H]1C equals 2.26

The recorded log10(IC50) for entry C[C@@H]1O[C@H](c2ccncc2NC(=O)c2nc(-c3ccccc3)cnc2N)C[C@H](N)[C@@]1(C)O equals 1.59

The recorded log10(IC50) for entry N[C@@H]1C[C@H](c2ccncc2NC(=O)c2ccnc(-c3c(F)cccc3F)n2)O[C@@H]2CCCC[C@]12O equals 1.11

The recorded log10(IC50) for entry N[C@@H]1C[C@H](c2ccncc2NC(=O)c2ccc(F)c(-c3c(F)cccc3F)n2)O[C@H](C2CC2)[C@H]1O equals 3.87

###

tgt: PIM2 (Homo sapiens, UniProt Q9P1W9)
experiment notes: Pim 2 AlphaScreen assay (high ATP)
Format: biochemical
run parameters: read-out: Pim2 IC50
measured quantity: IC50 (nM)
Number only, in nM; omit the unit.

The recorded IC50 for entry C[C@@]1(O)[C@H](N)C[C@@H](c2ccncc2NC(=O)c2ccc(F)c(-c3c(F)cccc3F)n2)OC12CC2 equals 272

The recorded IC50 for entry COc1ccc(F)c(-c2nc(C(=O)Nc3cnccc3[C@H]3C[C@@H](N)[C@](C)(O)[C@@H](C)O3)ccc2F)c1F equals 12.2

The recorded IC50 for entry N[C@@H]1C[C@H](c2ccncc2NC(=O)c2ccc(F)c(-c3c(F)cccc3F)n2)O[C@H](C2CC2)[C@H]1O equals 9.9

The recorded IC50 for entry CC(C)(C)[C@@H]1O[C@H](c2ccncc2NC(=O)c2ccc(F)c(-c3c(F)cccc3F)n2)C[C@H](N)[C@H]1O equals 47.2

###

tgt: PDGFRaV561D kinase (Homo sapiens, UniProt P16234, V561D)
Sequence (P16234 24-1089 V561D): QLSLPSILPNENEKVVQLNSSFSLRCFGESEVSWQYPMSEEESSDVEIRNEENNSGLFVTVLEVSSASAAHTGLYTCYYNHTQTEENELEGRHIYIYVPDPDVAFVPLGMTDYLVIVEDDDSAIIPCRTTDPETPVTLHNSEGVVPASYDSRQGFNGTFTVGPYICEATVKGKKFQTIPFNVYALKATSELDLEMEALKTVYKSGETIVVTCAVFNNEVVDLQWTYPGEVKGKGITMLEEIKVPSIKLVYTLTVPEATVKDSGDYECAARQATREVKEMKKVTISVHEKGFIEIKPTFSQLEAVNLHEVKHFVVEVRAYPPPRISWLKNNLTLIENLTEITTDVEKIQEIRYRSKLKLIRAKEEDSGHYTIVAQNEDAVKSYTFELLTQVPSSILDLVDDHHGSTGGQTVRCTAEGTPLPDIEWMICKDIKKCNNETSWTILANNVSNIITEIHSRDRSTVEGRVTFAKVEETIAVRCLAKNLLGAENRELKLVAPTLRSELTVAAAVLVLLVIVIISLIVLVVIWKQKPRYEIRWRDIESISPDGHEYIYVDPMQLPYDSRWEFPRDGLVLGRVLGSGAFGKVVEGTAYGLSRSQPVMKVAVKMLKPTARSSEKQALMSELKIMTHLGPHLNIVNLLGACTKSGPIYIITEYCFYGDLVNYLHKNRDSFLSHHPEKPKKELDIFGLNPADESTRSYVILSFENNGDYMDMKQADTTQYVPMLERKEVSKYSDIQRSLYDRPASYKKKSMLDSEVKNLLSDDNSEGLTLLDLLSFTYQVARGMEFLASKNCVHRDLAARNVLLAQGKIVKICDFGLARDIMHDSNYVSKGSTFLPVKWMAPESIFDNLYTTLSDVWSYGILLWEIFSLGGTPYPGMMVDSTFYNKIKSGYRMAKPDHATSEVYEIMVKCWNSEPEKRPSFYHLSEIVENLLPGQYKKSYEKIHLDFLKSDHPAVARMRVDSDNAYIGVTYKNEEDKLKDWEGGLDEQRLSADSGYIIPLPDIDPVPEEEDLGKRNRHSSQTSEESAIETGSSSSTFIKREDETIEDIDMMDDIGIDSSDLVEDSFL
experiment notes: PDGFRaV561D kinase inhibition assay (LanthaScreen TR-FRET)
run parameters: read-out: PDGFRa IC50
measured quantity: pIC50
Scale explanation: pIC50 corresponds to minus log10 of a concentration expressed in moles per litre.

Reading of pIC50 for N[C@@H]1C[C@H](c2ccncc2NC(=O)c2ccc(F)c(-c3c(F)cccc3F)n2)O[C@@H]2CCC[C@H]12 [Example 224] with PDGFRaV561D kinase (Homo sapiens, UniProt P16234, V561D): 6.41

Reading of pIC50 for CC(C)(C)[C@@H]1O[C@H](c2ccncc2NC(=O)c2nc(-c3ccccc3)cnc2N)C[C@@H](N)[C@H]1O [Example 227] with PDGFRaV561D kinase (Homo sapiens, UniProt P16234, V561D): 5.89

Reading of pIC50 for N[C@H]1C[C@@H](c2ccncc2NC(=O)c2csc(-c3c(F)cccc3F)n2)O[C@H]2CCC[C@H]21 [Example 230] with PDGFRaV561D kinase (Homo sapiens, UniProt P16234, V561D): 5.82

Reading of pIC50 for CC(C)[C@@H]1C[C@H](N)C[C@H](c2ccncc2NC(=O)c2nc(-c3ccccc3)cnc2N)O1 [Example 291] with PDGFRaV561D kinase (Homo sapiens, UniProt P16234, V561D): 7.09

Reading of pIC50 for Nc1ncc(-c2ccccc2)nc1C(=O)Nc1cnccc1[C@H]1C[C@@H](N)[C@H](O)[C@@H](C2CC2)O1 [Example 346] with PDGFRaV561D kinase (Homo sapiens, UniProt P16234, V561D): 7.14

Reading of pIC50 for CC(C)(C)[C@@H]1O[C@H](c2ccncc2NC(=O)c2nc(-c3ccccc3)cnc2N)C[C@H](N)[C@H]1O [Example 355] with PDGFRaV561D kinase (Homo sapiens, UniProt P16234, V561D): 5.04

Reading of pIC50 for C[C@@]1(O)[C@@H](N)C[C@@H](c2ccncc2NC(=O)c2nc(-c3ccccc3)cnc2N)O[C@H]1C1CC1 [Example 347] with PDGFRaV561D kinase (Homo sapiens, UniProt P16234, V561D): 5.05

Reading of pIC50 for CC1(C)C[C@H](N)C[C@@H](c2ccncc2NC(=O)c2nc(-c3ccccc3)cnc2N)O1 [Example 297] with PDGFRaV561D kinase (Homo sapiens, UniProt P16234, V561D): 6.82

Reading of pIC50 for C[C@H]1O[C@@H](c2ccncc2NC(=O)c2ccc(F)c(-c3c(F)cccc3F)n2)C[C@@H](N)[C@]1(C)O [Example 219] with PDGFRaV561D kinase (Homo sapiens, UniProt P16234, V561D): 6.20

Reading of pIC50 for Nc1ncc(-c2ccccc2)nc1C(=O)Nc1cnccc1[C@H]1C[C@@H](O)[C@@]2(O)CCCC[C@H]2O1 [Example 173] with PDGFRaV561D kinase (Homo sapiens, UniProt P16234, V561D): 7.32

Reading of pIC50 for Nc1ncc(-c2ccccc2)nc1C(=O)Nc1cnccc1[C@@H]1C[C@H](N)[C@]2(O)CCC[C@@H]2O1 [Example 185] with PDGFRaV561D kinase (Homo sapiens, UniProt P16234, V561D): 5.39

Reading of pIC50 for C[C@]1(O)[C@H](N)C[C@H](c2ccncc2NC(=O)c2nc(-c3ccccc3)cnc2N)O[C@@H]1C1CC1 [Example 344] with PDGFRaV561D kinase (Homo sapiens, UniProt P16234, V561D): 6.96

Reading of pIC50 for CC[C@@H]1O[C@H](c2ccncc2NC(=O)c2nc(-c3ccccc3)cnc2N)C[C@H](N)[C@H]1O [Example 342] with PDGFRaV561D kinase (Homo sapiens, UniProt P16234, V561D): 6.85

Reading of pIC50 for CC1(C)C[C@@H](N)C[C@H](c2ccncc2NC(=O)c2nc(-c3ccccc3)cnc2N)O1 [Example 296] with PDGFRaV561D kinase (Homo sapiens, UniProt P16234, V561D): 8.06
